# System under test: MERTK (UniProt Q12866)
# Sequence (Q12866 whole entry, looked up): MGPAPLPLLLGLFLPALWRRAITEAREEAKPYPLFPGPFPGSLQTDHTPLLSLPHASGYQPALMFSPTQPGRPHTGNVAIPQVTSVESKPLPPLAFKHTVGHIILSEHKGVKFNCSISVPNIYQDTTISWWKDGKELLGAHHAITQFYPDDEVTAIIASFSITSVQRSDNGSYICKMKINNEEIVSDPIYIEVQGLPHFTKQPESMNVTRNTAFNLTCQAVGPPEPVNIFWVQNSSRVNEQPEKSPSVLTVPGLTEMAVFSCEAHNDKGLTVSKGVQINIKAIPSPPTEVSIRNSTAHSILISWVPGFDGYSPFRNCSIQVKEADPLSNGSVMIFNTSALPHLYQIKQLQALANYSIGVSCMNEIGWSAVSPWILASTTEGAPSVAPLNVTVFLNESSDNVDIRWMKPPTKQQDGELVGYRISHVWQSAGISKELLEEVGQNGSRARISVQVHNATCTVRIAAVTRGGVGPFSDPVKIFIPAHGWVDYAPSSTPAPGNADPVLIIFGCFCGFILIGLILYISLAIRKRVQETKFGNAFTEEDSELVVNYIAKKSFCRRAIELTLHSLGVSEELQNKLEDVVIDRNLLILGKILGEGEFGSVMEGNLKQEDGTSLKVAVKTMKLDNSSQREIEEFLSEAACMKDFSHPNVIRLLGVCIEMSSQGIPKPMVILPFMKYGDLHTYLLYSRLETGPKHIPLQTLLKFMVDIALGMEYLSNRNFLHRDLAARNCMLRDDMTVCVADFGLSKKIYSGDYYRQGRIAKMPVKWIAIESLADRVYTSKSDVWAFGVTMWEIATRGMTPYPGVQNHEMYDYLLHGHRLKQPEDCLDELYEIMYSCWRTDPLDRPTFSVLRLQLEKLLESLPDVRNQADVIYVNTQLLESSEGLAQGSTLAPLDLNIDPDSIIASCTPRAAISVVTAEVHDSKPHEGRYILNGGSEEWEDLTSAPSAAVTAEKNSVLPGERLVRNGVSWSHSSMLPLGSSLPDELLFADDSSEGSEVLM
# Assay overview: phosphorylation enrichment, bacterial display (enrichment ratio); higher = better substrate or ligand; peptides without Tyr show the background;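 also: 11-residue human phosphosite peptides and single-mutation variants displayed on the E. coli surface, counted by deep sequencing, each peptide's frequency after selection divided by its frequency in the unselected input library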;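 also: frequency after pTyr selection over input frequency; kinase dosed for 20-30% of maximal phosphorylation in three min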
Endpoint name: phosphorylation enrichment

Examples with their reported phosphorylation enrichment follow.
>  <Sequence code>
EFKKHYGYSLY [ANXA3_Y295]

>  <phosphorylation enrichment>
0.401

$$$$
>  <Sequence code>
GLDGSYLPRDS [SH2D1A_Y29_L31P]

>  <phosphorylation enrichment>
0.416

$$$$
>  <Sequence code>
CPPELYALMSD [ZAP70_Y569]

>  <phosphorylation enrichment>
3.54

$$$$
>  <Sequence code>
IQKWEYVPLGT [FAH_Y244_P249T]

>  <phosphorylation enrichment>
0.328

$$$$
>  <Sequence code>
EHIEFYELDKK [PMM2_Y145_R141H]

>  <phosphorylation enrichment>
0.514

$$$$
>  <Sequence code>
TGGLEYIVPLM [CLCN4_Y548]

>  <phosphorylation enrichment>
0.364

$$$$
>  <Sequence code>
AEQEEYSAMRD [NRAS_Y64_G60E]

>  <phosphorylation enrichment>
0.478

$$$$
>  <Sequence code>
HSVLNYGVCVC [JAK2_Y613_L609S]

>  <phosphorylation enrichment>
0.482

$$$$
>  <Sequence code>
IKNSGYISRFL [EIF2AK3_Y585_YF]

>  <phosphorylation enrichment>
0.44

$$$$
>  <Sequence code>
SSSNPYSTVTM [ACTN2_Y599]

>  <phosphorylation enrichment>
0.521

$$$$

Please report the recorded phosphorylation enrichment for DGMADCSDPSF [CDC5L_Y459_Y459C_YF] .
0.525

Please report the recorded phosphorylation enrichment for KRTFEYEAEKN [DENND2B_Y396_D399E] .
0.505

Please report the recorded phosphorylation enrichment for FGSVDCWEKFF [EEF1AKNMT_Y16_Y16C] .
0.459

Please report the recorded phosphorylation enrichment for ADGLEYSRTGL [MMUT_Y287] .
0.592

---

# System: AncSZ
# Assay overview: phosphorylation enrichment, bacterial display (enrichment ratio); higher = better substrate or ligand; peptides without Tyr show the background
Endpoint name: phosphorylation enrichment
Write the number on its own, no unit after it.

Examples with their reported phosphorylation enrichment follow.
>  <Sequence code>
SLFQFYFQQKG [CHKB_Y381_R377L]

>  <System under test>
AncSZ

>  <phosphorylation enrichment>
1.35

$$$$
>  <Sequence code>
DIPIRYSIMGV [CDH4_Y205_T208M]

>  <System under test>
AncSZ

>  <phosphorylation enrichment>
1.13

$$$$
>  <Sequence code>
GLQDEYDFKCK [STAT1_Y170_D165G]

>  <System under test>
AncSZ

>  <phosphorylation enrichment>
1.09

$$$$
>  <Sequence code>
NARGLYFKLHN [GATA2_Y376_C373R_YF]

>  <System under test>
AncSZ

>  <phosphorylation enrichment>
1.51

$$$$
>  <Sequence code>
VNFDFYTVNLG [GFPT1_Y367_D366Y_YF]

>  <System under test>
AncSZ

>  <phosphorylation enrichment>
1.29

$$$$
>  <Sequence code>
KGIQLYDTPYE [SHB_Y297]

>  <System under test>
AncSZ

>  <phosphorylation enrichment>
1.5

$$$$
>  <Sequence code>
KLMTEYKKRKQ [ARFGEF3_Y2029]

>  <System under test>
AncSZ

>  <phosphorylation enrichment>
0.478

$$$$
>  <Sequence code>
FRQNGYIPGSN [PCDHGA1_Y895_V894G_YF]

>  <System under test>
AncSZ

>  <phosphorylation enrichment>
0.5

$$$$

Please report the recorded phosphorylation enrichment for LANNEYFFQVC .
3.75

Please report the recorded phosphorylation enrichment for DFPMGYPSFLA [TBCK_Y153_I151M_YF] .
0.64

Please report the recorded phosphorylation enrichment for ELTAKYLNFFQ [P3H4_Y181_YF] .
0.871

Please report the recorded phosphorylation enrichment for EYQKKYSDADI [CKAP5_Y1860_K1857Q] .
0.913

Please report the recorded phosphorylation enrichment for PGGNIYISPLK [RB1_Y805] .
0.902

Please report the recorded phosphorylation enrichment for SVVVPNEPPEV [TP53_Y220_Y220N] .
1.03

Measured values drawn from the supplement of paper PMC10065799 for this set.
